# Tested on: Ramos cells
# measurement-description: Cytotoxicity in Ramos cells
# Format: cell-based
# particulars: Homo sapiens; cytotoxicity in Ramos cells; read-out: Ramos Cell EC50
pEC50: −log10 of the molar value.
measured-parameter: pEC50

{"columns": ["compound", "pEC50"],
 "data": [
  ["Cc1cc(C(=O)/N=C(/NCC(C)(C)C)Nc2cc(C(F)(F)F)[nH]n2)ccn1 [Compound A-85]", "< 5.00"],
  ["O=C(N=C(Nc1cc(F)cc(Cl)c1)Nc1cc(-c2cccc(Cl)c2)[nH]n1)c1ccc(Cl)c(F)c1 [Compound A-475]", "< 5.00"],
  ["COCC(C)N/C(=N/C(=O)c1ccc(F)c(F)c1)Nc1cc(C(F)(F)F)n[nH]1 (stereo not shown) [Compound A-106]", "> 5.00"]
]}

The record that follows has no pEC50 shown yet.
What does the data say about its pEC50? Entry: O=C(/N=C(/NCC(O)CO)Nc1cc(C(F)(F)F)n[nH]1)c1ccc(F)cc1 (stereo not shown) [Compound A-562]
< 5.00

Data provenance: patent US9139532B2
